# System: COLO205 cells
# method: Cell cycle distribution by flow cytometry
# Assay type: cell-based, human
# experimentalConditions: COLO205 cells, 50 μM, 24 h, Table 12
Response key: true (1) means Cell Cycle Distribution S >= 30; false (0) means Cell Cycle Distribution S < 30.

Some entries whose results are on file:
[[record]]
compound = "COc1ccc(-c2oc3c(OC)c(OC)c(OC)c(O)c3c(=O)c2OC)cc1OC"
assignedclass = "false (0)"

[[record]]
compound = "COc1ccc(-c2cc(=O)c3c(OC)c(OC)c(OC)c(OC)c3o2)cc1O"
assignedclass = "false (0)"

[[record]]
compound = "COc1ccc(-c2cc(=O)c3c(O)c(OC)c(OC)c(OC)c3o2)cc1OC"
assignedclass = "false (0)"

[[record]]
compound = "COc1c(OC)c(OC)c2c(=O)cc(-c3ccc(O)c(O)c3)oc2c1OC"
assignedclass = "false (0)"

[[record]]
compound = "COc1ccc(-c2cc(=O)c3c(OC)c(OC)c(OC)c(OC)c3o2)cc1OC [Compound A, 5,6,7,8,3′,4′-hexamethoxyflavone, reference compound]"
assignedclass = "false (0)"


# input Textbook exercise: given the entry COc1cc(-c2cc(=O)c3c(OC)c(OC)c(OC)c(OC)c3o2)cc(OC)c1OC [F, 5,6,7,8,3′,4′,5′-heptamethoxyflavone, reference compound] , state whether its Cell Cycle Distribution S is greater than or equal to 30.
# output false (0)

# input Try this compound next: COc1ccc(-c2oc3c(OC)c(OC)c(OC)c(OC)c3c(=O)c2O)cc1OC
# output true (1)

# input Try this compound next: COc1cc(-c2cc(=O)c3c(O)c(OC)c(OC)c(OC)c3o2)cc(OC)c1OC
# output false (0)

# input Try this compound next: COc1ccc(-c2oc3c(OC)c(OC)c(OC)c(OC)c3c(=O)c2OC)cc1OC [D, 3,5,6,7,8,3,4-heptamethoxyflavone, reference compound]
# output false (0)

# input Try this compound next: COc1ccc(-c2cc(=O)c3c(O)c(OC)c(OC)c(OC)c3o2)cc1O
# output true (1)

# input Try this compound next: COc1cc(-c2cc(=O)c3c(OC)c(OC)c(OC)c(OC)c3o2)ccc1O
# output false (0)

* * *

Catalogue of Cell Cycle Distribution G0/G1 readings, one per entry.
# System: HL-60 cells
# method: Cell cycle distribution by flow cytometry
# Format: cell-based, human
# experimentalConditions: 100 μM, 24 h, Table 10
// response body must contain only the number

[[record]]
molecule = "COc1ccc(-c2cc(=O)c3c(OC)c(OC)c(OC)c(OC)c3o2)cc1OC [Compound A, 5,6,7,8,3′,4′-hexamethoxyflavone, reference compound]"
measuredproperty = "Cell Cycle Distribution G0/G1"
readoutvalue = 62.05

[[record]]
molecule = "COc1c(OC)c(OC)c2c(=O)cc(-c3ccc(O)c(O)c3)oc2c1OC"
measuredproperty = "Cell Cycle Distribution G0/G1"
readoutvalue = 61.15

[[record]]
molecule = "COc1ccc(-c2cc(=O)c3c(OC)c(OC)c(OC)c(OC)c3o2)cc1O"
measuredproperty = "Cell Cycle Distribution G0/G1"
readoutvalue = 65.54

[[record]]
molecule = "COc1cc(-c2cc(=O)c3c(O)c(OC)c(OC)c(OC)c3o2)cc(OC)c1OC"
measuredproperty = "Cell Cycle Distribution G0/G1"
readoutvalue = 42.95

[[record]]
molecule = "COc1cc(-c2cc(=O)c3c(OC)c(OC)c(OC)c(OC)c3o2)ccc1O"
measuredproperty = "Cell Cycle Distribution G0/G1"
readoutvalue = 65.44

[[record]]
molecule = "COc1ccc(-c2cc(=O)c3c(O)c(OC)c(OC)c(OC)c3o2)cc1O"
measuredproperty = "Cell Cycle Distribution G0/G1"
readoutvalue = 3.18

[[record]]
molecule = "COc1ccc(-c2oc3c(OC)c(OC)c(OC)c(OC)c3c(=O)c2O)cc1OC"
measuredproperty = "Cell Cycle Distribution G0/G1"
readoutvalue = 49.63


# input Look at this molecule and give its reported Cell Cycle Distribution G0/G1. COc1ccc(-c2cc(=O)c3c(O)c(OC)c(OC)c(OC)c3o2)cc1OC
# output 51.29

* * *

Catalogue of Cell Cycle Distribution S readings, one per entry.
# Test system: HT-29 cells
# method: Cell cycle distribution by flow cytometry
# Format: cell-based, human
# experimentalConditions: 100 μM, 24 h
# Procedure: The human cancer cells (2×10^5) were cultured in 60-mm Petri dishes and incubated for 24 h. […] Fluorescence emitted from the propidium iodide-DNA complex was quantitated after excitation of the fluorescent dye by FACScan cytometry (Becton Dickinson, San Jose, Calif.). Compounds A-K were evaluated in terms of their effects in arresting cell cycle progression by observing cell cycle phase distribution in cells treated with the compounds. […]
// response body must contain only the number

A selection of reference data follows.
[[record]]
molecule = "COc1ccc(-c2oc3c(OC)c(OC)c(OC)c(O)c3c(=O)c2OC)cc1OC [Compound C]"
targetorsystem = "HT-29 cells"
readoutvalue = 18.59

[[record]]
molecule = "COc1ccc(-c2cc(=O)c3c(OC)c(OC)c(OC)c(OC)c3o2)cc1O [I]"
targetorsystem = "HT-29 cells"
readoutvalue = 25.45

[[record]]
molecule = "COc1ccc(-c2oc3c(OC)c(OC)c(OC)c(OC)c3c(=O)c2OC)cc1OC [D, 3,5,6,7,8,3,4-heptamethoxyflavone, reference compound]"
targetorsystem = "HT-29 cells"
readoutvalue = 15.57

[[record]]
molecule = "COc1c(OC)c(OC)c2c(=O)cc(-c3ccc(O)c(O)c3)oc2c1OC [H]"
targetorsystem = "HT-29 cells"
readoutvalue = 33.37


# input Look at this molecule and give its reported Cell Cycle Distribution S. COc1cc(-c2cc(=O)c3c(OC)c(OC)c(OC)c(OC)c3o2)ccc1O [Compound G]
# output 10.11

# input Try this molecule next: COc1ccc(-c2cc(=O)c3c(O)c(OC)c(OC)c(OC)c3o2)cc1O [Compound K]
# output 16.72

# input Try this molecule next: COc1cc(-c2cc(=O)c3c(OC)c(OC)c(OC)c(OC)c3o2)cc(OC)c1OC [F, 5,6,7,8,3′,4′,5′-heptamethoxyflavone, reference compound]
# output 4.10

* * *

# Test system: calpain
# method: Calpain activity assay (fluorogenic substrate, immunofluorescence)
# Type: cell-based, human
# experimentalConditions: MCF-7 cells, day 3 or 6, FIG. 12A, 13A,B
# Protocol: Calpain and caspase-12 activities were measured with the cell-permeable fluorogenic peptide substrates t-Boc-Leu-Met-CMAC (50 μM; CMAC, 7-amino-4-chloromethyl coumarin; Molecular Probes) and Ala-Thr-Ala-Asp-AFC (50 μM; AFC, 7-amino-4-trifluoromethyl coumarin; Caspase-12 Fluorometric Assay Kit, BioVision), respectively. See, e.g., Roser and Gores (2000) Meth. Mol. Biol. 144:2452-2466. […] Fluorescence microscopy was carried out as described above for Ca^2+ imaging. […]
measuredProperty: Calpain activation, in words

[[record]]
compound = "COc1ccc(-c2cc(=O)c3c(OC)c(OC)c(OC)cc3o2)cc1O [Compound 5, 3′-hydroxy-5,6,7,4′-tetramethoxyflavone]"
readoutvalue = "activation"

[[record]]
compound = "COc1ccc(-c2oc3c(OC)c(OC)c(OC)c(O)c3c(=O)c2OC)cc1OC"
readoutvalue = "activation"


* * *

# System: HT-29 cells
# method: Cell cycle distribution by flow cytometry
# Type: cell-based, human
# experimentalConditions: 100 μM, 24 h
measuredProperty: Cell Cycle Distribution S
// response body must contain only the number

A selection of reference data follows.
[[record]]
molecule = "COc1cc(-c2cc(=O)c3c(O)c(OC)c(OC)c(OC)c3o2)cc(OC)c1OC"
targetorsystem = "HT-29 cells"
measuredproperty = "Cell Cycle Distribution S"
readoutvalue = 29.42

[[record]]
molecule = "COc1ccc(-c2oc3c(OC)c(OC)c(OC)c(OC)c3c(=O)c2O)cc1OC"
targetorsystem = "HT-29 cells"
measuredproperty = "Cell Cycle Distribution S"
readoutvalue = 24.45

[[record]]
molecule = "COc1ccc(-c2cc(=O)c3c(O)c(OC)c(OC)c(OC)c3o2)cc1OC"
targetorsystem = "HT-29 cells"
measuredproperty = "Cell Cycle Distribution S"
readoutvalue = 29.67


# next molecule below
# input Look at this molecule and give its reported Cell Cycle Distribution S. COc1ccc(-c2cc(=O)c3c(OC)c(OC)c(OC)c(OC)c3o2)cc1OC [Compound A, 5,6,7,8,3′,4′-hexamethoxyflavone, reference compound]
# output 4.92

* * *

Catalogue of Cell Cycle Distribution G0/G1 readings, one per entry.
# Test system: HL-60 cells
# method: Cell cycle distribution by flow cytometry
# Type: cell-based, human
# experimentalConditions: 100 μM, 24 h, Table 10
// response body must contain only the number

[[record]]
molecule = "COc1ccc(-c2oc3c(OC)c(OC)c(OC)c(O)c3c(=O)c2OC)cc1OC [Compound C]"
measuredproperty = "Cell Cycle Distribution G0/G1"
readoutvalue = 50.23

[[record]]
molecule = "COc1cc(-c2cc(=O)c3c(OC)c(OC)c(OC)c(OC)c3o2)cc(OC)c1OC [F, 5,6,7,8,3′,4′,5′-heptamethoxyflavone, reference compound]"
measuredproperty = "Cell Cycle Distribution G0/G1"
readoutvalue = 63.66


# input Look at this molecule and give its reported Cell Cycle Distribution G0/G1. COc1ccc(-c2oc3c(OC)c(OC)c(OC)c(OC)c3c(=O)c2OC)cc1OC [D, 3,5,6,7,8,3,4-heptamethoxyflavone, reference compound]
# output 84.06

Measured values drawn from patent US20140039044A1 for this set.
